biological target: Factor X (FX), P00742
Sequence (P00742 whole entry, looked up): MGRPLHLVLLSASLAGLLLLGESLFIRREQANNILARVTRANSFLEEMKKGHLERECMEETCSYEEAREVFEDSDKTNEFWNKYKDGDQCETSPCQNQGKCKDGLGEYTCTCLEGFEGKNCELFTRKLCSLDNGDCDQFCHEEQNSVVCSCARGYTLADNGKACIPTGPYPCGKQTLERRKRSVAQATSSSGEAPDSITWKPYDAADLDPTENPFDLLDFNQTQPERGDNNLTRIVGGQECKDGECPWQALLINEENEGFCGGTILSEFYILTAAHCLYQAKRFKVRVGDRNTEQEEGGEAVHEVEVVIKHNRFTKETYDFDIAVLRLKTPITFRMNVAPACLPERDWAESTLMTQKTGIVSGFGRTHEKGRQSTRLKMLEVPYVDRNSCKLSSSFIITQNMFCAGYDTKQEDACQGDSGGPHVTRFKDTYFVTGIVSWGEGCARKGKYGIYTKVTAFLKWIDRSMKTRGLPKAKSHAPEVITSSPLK
RESULT_TYPE: KM (FX activation by FIXa in the Xase complex with FVIIIa, PC/PS vesicles and Ca2+) (µM)
# value in µM; strip the unit string

*Q* Please report the recorded KM (FX activation by FIXa in the Xase complex with FVIIIa, PC/PS vesicles and Ca2+) for FIXa R318Y/R338E/E410S (protein) chain 1: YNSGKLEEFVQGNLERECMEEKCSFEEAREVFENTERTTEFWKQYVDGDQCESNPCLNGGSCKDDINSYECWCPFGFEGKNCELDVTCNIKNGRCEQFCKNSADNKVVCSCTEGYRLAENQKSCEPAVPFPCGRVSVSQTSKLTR chain 2: VVGGEDAKPGQFPWQVVLNGKVDAFCGGSIVNEKWIVTAAHCVETGVKITVVAGEHNIEETEHTEQKRNVIRIIPHHNYNAAINKYNHDIALLELDEPLVLNSYVTPICIADKEYTNIFLKFGSGYVSGWGRVFHKGYSALVLQYLRVPLVDRATCLESTKFTIYNNMFCAGFHEGGRDSCQGDSGGPHVTEVEGTSFLTGIISWGEECAMKGKYGIYTKVSRYVNWIKSKTKLT .
*A* 0.0164

The values you see were collected from patent US20210238260.
